Sourced from ChEMBL document CHEMBL3864160

assay: AUC in CD1 mouse at 3 mg/kg, po after 0.25 to 24 hrs; format: ADME, organism-based; set-up: time upper 24 hr, dose 3 mg/kg, time lower 0.25 hr, route oral; details: in vivo
Would you mind telling me the reported AUC of each entry?
Respond with the figure and its unit, in that order.

item_smiles=COC(=O)N[C@H](C(=O)N1CCC[C@H]1C(=O)Nc1ccc([C@H]2CC[C@@H](c3ccc(NC(=O)[C@@H]4CCCN4C(=O)[C@@H](NC(=O)OC)C(C)C)cc3)N2c2ccc(C(C)(C)C)cc2)cc1)C(C)C readout_label=AUC reported_result="11000 ng·h/mL"

Answer for every listed entry: what is its AUC? The entries follow.
1. COC(=O)N[C@H](C(=O)N1CCC[C@H]1c1nc2cc([C@H]3CC[C@H](c4cc5[nH]c([C@@H]6CCCN6C(=O)[C@@H](NC(=O)OC)C(C)C)nc5cc4F)N3c3ccc(C(C)(C)C)cc3)c(F)cc2[nH]1)C(C)C
2. COC(=O)N[C@H](C(=O)N1CCC[C@H]1c1nc2cc([C@H]3CC[C@H](c4ccc5[nH]c([C@@H]6CCCN6C(=O)[C@@H](NC(=O)OC)C(C)C)nc5c4)N3c3cc(F)c(N4CCCCC4)c(F)c3)ccc2[nH]1)C(C)C
3. COC(=O)N[C@H](C(=O)N1CCC[C@H]1c1nc2cc([C@H]3CC[C@H](c4cc5nc([C@@H]6CCCN6C(=O)[C@@H](NC(=O)OC)C(C)C)[nH]c5cc4F)N3c3cc(F)c(N4CCCCC4)c(F)c3)c(F)cc2[nH]1)C(C)C

Found:
1. 5790 ng·h/mL
2. 1800 ng·h/mL
3. 4410 ng·h/mL
